binders and their reported KD improvement
system.under.test: alpha-synuclein (human, UniProt P37840 1-140)
protocol.summary: SPR (Biacore 3000), IgG captured by anti-human IgG on CM5 chip, synuclein as analyte
measure: KD improvement

>>> reported_measurement("chimeric 2E6 (antibody, V domains shown, also called ch2E6; Ch2E6) VH: QVQLQQPGAELVKPGASVKLSCTASGYTFTSYWMHWMKQRPGRGLEWIGRIDPNSGTTKYNVNFKTKATLTVDKPSSTAYMHLSSLTSEDSAVYYCARLGHYGNLYAMDYWGQGTSVT VL: QIVLTQSPAIMSASPGEKVTMTCSASSSVSYMHWYQQKSGTSPKRWIYDTSKLASGVPTRFSGSGSGTSYSLTISSMDTEDAATYYCQQWSSNPPTFGAGTKLELK")
"1 fold (Ch2E6 = 1)"
>>> reported_measurement("8D9 (antibody, V domains shown) VH: QVQLVQSGAEVKKPGASVKVSCKASGYTFTSYWMHWMRQAPGQGLEWIGRIDPNSGTTKYNVNFKTRATLTVDKSTSTAYMELSSLRSEDTAVYYCARLGHYGNLYAKDYWGQGTLVT VL: EIVLTQSPATLSLSPGERATLSCSASSSVSYIHWYQQKPGQAPRRWIYDTSKLASGVPARFSGSGSGTDYTLTISSLEPEDFAVYYCQQWSSNPPTFGQGTKLEIK")
"8.7 fold (Ch2E6 = 1)"
>>> reported_measurement("7A10 (antibody, V domains shown, also called 2E6_7A10; 2E6-HLD1-7A10) VH: QVQLVQSGAEVKKPGASVKVSCKASGYTFTSYWMHWMRQAPGQGLEWIGRIDPNSGTTKYNVNFKTRATLTVDKSTSTAYMELSSLRSEDTAVYYCARLGHYGNLYAKDYWGQGTLVT VL: EIVLTQSPATLSLSPGERATLSCSASSSVSYIHWYQQKPGQAPRRWIYDTSKLASGVPARFSGSGSGTDYTLTISSLEPEDFAVYYCQQWSSNPPTFGQGTKLEIK")
"10.3 fold (Ch2E6 = 1)"
